# System: Staphylococcus aureus
# METHOD: Antibacterial activity against Staphylococcus aureus N315 after 14 to 16 hrs by broth dilution method
# Format: functional
REPORTED PROPERTY: MIC (µg/mL)
Numeric only. Scale: µg/mL

Before answering, review these 2 worked examples.
>>> endpoint_result("CC1(C)S[C@@H]2[C@H](NC(=O)C(C(=O)O)c3ccccc3)C(=O)N2[C@H]1C(=O)O (stereo partly drawn)")
32
>>> endpoint_result("CC(C)(O/N=C(\\C(=O)N[C@@H]1C(=O)N2C(C(=O)[O-])=C(C[n+]3ccccc3)CS[C@H]12)c1csc(N)n1)C(=O)O")
32

// next item, MIC requested
## Task For the compound "O=C(O)c1cn(C2CC2)c2cc(N3CCNCC3)c(F)cc2c1=O" , what MIC is on record?
## Result 1
